// cross-source set; read-out = pKi; system = Coagulation factor IX (Homo sapiens)
In textbook form, pKi equals minus log to base ten of the concentration in mol/L.

Answered examples (4):
{"Compound": "N=C(N)c1ccc2scc([C@H](Cc3ccccc3)C(=O)NC3CCCC[C@H]3C(=O)O)c2c1 (some centres undefined)", "Reported Measurement": 5.46}
{"Compound": "Cc1cc2nc(CCNC(=O)c3ccc(-n4ccnn4)cc3Cl)[nH]c2cc1C", "Reported Measurement": 3.89}
{"Compound": "Cc1cc2nc([C@@H](CNC(=O)c3ccc(-n4cnnc4)cc3Cl)c3cccc(F)c3)[nH]c2cc1C", "Reported Measurement": 8.24}
{"Compound": "Cc1ccc(F)cc1NC(=O)C(Cc1ccccc1)c1csc2ccc(C(=N)N)cc12 (centres undefined)", "Reported Measurement": 6.02}

Notebook: pull reported pKi for Coagulation factor IX (Homo sapiens), entry Cc1ccc(O)c2c3c(nn12)CCC(C)(NC(=O)c1ccc(C#N)cc1F)C3 (centres undefined)
5.70

Notebook: pull reported pKi for Coagulation factor IX (Homo sapiens), entry Cc1ccc(O)c2c3c(nn12)CCC(C)(NC(=O)c1ccccc1Cl)C3 (centres undefined)
5.20

###

// cross-source set; read-out = pKi; system = Coagulation factor IX (Homo sapiens)
In textbook form, pKi equals minus log to base ten of the concentration in mol/L.

Answered examples (4):
{"Molecule": "CCOC(=O)[C@@H]1CCCCC1NC(=O)C(Cc1ccccc1)c1coc2ccc(C(=N)N)cc12 (stereo not given in full)", "pKi": 5.92}
{"Molecule": "Cc1ccc(O)c2c3c(nn12)CCC(C)(NC(=O)c1ccc(-n2ccnc2)cc1Cl)C3 (stereo not given)", "pKi": 6.23}
{"Molecule": "Cc1nc2c(C(F)(F)F)nn(-c3ccc4onc(N)c4c3)c2c(=O)n1-c1ccc(-c2ccccc2CN(C)C)cc1", "pKi": 4.43}
{"Molecule": "CC1CCC(NC(=O)C(Cc2ccccc2)c2csc3ccc(C(=N)N)cc23)CC1 (stereo not given)", "pKi": 6.24}

# lookup: pKi of N=C(N)c1cccc(-n2nc(C(F)(F)F)cc2C(=O)Nc2ccc(-n3cnc4cc(C(F)(F)F)ccc43)cc2F)c1
8.19

###

// cross-source set; read-out = Ki; system = Coagulation factor IX (Homo sapiens, UniProt P00740)
Class key for Ki values: zone 1 (below 300 nM), zone 2 (300 nM to below 2000 nM), zone 3 (2000 nM or more)

Worked examples follow.
{"Compound": "N=C(N)c1ccc2scc(C3(C(=O)Nc4ccc(-n5cnc6ccccc65)cc4)CC3)c2c1.O=C(O)C(F)(F)F", "Assigned Class": "zone 3"}
{"Compound": "Cc1nn(-c2ccc3onc(N)c3c2)c2c(=O)n(-c3ccc(-c4ccccc4CN(C)C)cc3)c(C)nc12", "Assigned Class": "zone 3"}
{"Compound": "CC(C)(C(=O)Nc1ccc(-n2cnc3ccccc32)cc1)c1c[nH]c2ccc(C(=N)N)cc12", "Assigned Class": "zone 2"}
{"Compound": "Cc1ccc(O)c2c3c(nn12)CCC(C)(NC(=O)c1ccc(C#N)cc1)C3 (stereo not drawn)", "Assigned Class": "zone 3"}
{"Compound": "N=C(N)c1cccc(-n2nc(Cn3cncn3)cc2C(=O)Nc2ccc(-n3cnc4ccccc43)cc2)c1", "Assigned Class": "zone 1"}
{"Compound": "COC(=O)Nc1ccc(-c2nc([C@H](Cc3ccccc3)NC(=O)/C=C/c3cc(Cl)ccc3-n3cnnn3)[nH]c2Cl)cc1", "Assigned Class": "zone 3"}
{"Compound": "Cc1cc2nc([C@@H](CNC(=O)c3c(C)cc(-n4cnnc4)cc3Cl)c3ccccc3)[nH]c2cc1C", "Assigned Class": "zone 1"}
{"Compound": "Cc1cc2cc(NC(=N/[C@H]3CCCCN(CC(=O)N4CCCC4)C3=O)/C(C#N)=C(\\O)OCCCCO)ccc2o1", "Assigned Class": "zone 3"}

Lab note: which band did Cc1cc2nc(C(C)CNC(=O)c3ccc(-n4cnnc4)cc3Cl)[nH]c2cc1C (racemic) land in?
zone 2

Lab note: which band did CCC(C(=O)Nc1ccc(-n2cnc3ccccc32)cc1)c1csc2ccc(C(=N)N)cc12.O=C(O)C(F)(F)F (stereo not drawn) land in?
zone 1

Lab note: which band did Nc1noc2ccc(-n3nc(C(F)(F)F)c4c3C(=O)N(c3ccc(-c5ccccc5CN5CC[C@@H](O)C5)cc3)CN4)cc12 land in?
zone 3

Lab note: which band did CCS(=O)(=O)c1ccc2cc1CNC(=O)[C@H](Nc1ccc3c(N)nccc3c1)c1ccc(cc1)CCCC(=O)N2 land in?
zone 3

Lab note: which band did Nc1noc2ccc(-n3nc(C(F)(F)F)c4c3C(=O)N(c3ccc(-c5ccccc5CN5CC[C@@H](O)C5)cc3)CC4)cc12 land in?
zone 3
